The reported numbers originate from ChEMBL document CHEMBL1137861.

SYSTEM TESTED: Tryptase beta-1 (Homo sapiens)
Sequence (Q15661 31-275 limits assumed): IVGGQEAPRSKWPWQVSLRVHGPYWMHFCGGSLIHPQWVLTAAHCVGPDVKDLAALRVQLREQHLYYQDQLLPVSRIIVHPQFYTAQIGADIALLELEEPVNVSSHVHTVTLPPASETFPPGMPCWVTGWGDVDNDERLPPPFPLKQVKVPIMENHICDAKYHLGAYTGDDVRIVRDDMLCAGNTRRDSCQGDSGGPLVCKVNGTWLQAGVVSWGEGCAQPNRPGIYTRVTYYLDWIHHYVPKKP
PROTOCOL DETAILS: Inhibitory activity against human Tryptase beta 2 expressed in yeast cells at 5 uM
Assay type: cell-based
TEST READOUT: inhibition (%)

The examples below pair each entry with its known result.
Cc1c(Cl)nc(N[C@H]2CC[C@H](N)CC2)c(=O)n1CC(=O)NCCc1c[nH]cn1 :: 8
Cc1c(Cl)nc(N[C@H]2CC[C@H](N)CC2)c(=O)n1CC(=O)Nc1ccc(CN)cc1 :: 16
Cc1c(Cl)nc(N[C@H]2CC[C@H](N)CC2)c(=O)n1CC(=O)Nc1ccc(N)cc1 :: 29

[I] Cc1c(Cl)nc(N[C@H]2CC[C@H](N)CC2)c(=O)n1CC(=O)Nc1ccc(C(N)=O)cc1
[II] Cc1c(Cl)nc(N[C@H]2CC[C@H](N)CC2)c(=O)n1CC(=O)Nc1cccc(C(N)=O)c1
[III] Cc1c(Cl)nc(N[C@H]2CC[C@H](N)CC2)c(=O)n1CC(=O)Nc1cccc(N)c1
[IV] Cc1c(Cl)nc(N[C@H]2CC[C@H](N)CC2)c(=O)n1CC(=O)NC1CCC(N)CC1 (some centres not stated)
## Input Output the entries ranked by inhibition from maximum down to minimum. Could you list the labels in the order requested?
## Output I, II, III, IV
